- METHOD_NOTES: Pharmacokinetic study in rats
- Format: in vivo, male Sprague-Dawley rats
- RUN_CONDITIONS: male, Sprague-Dawley, rat, plasma, po, 1 mg/kg
TEST_READOUT: Cmax (ng/mL)
Give the value, in units of ng/mL, as a plain number.

Incoming: May I ask what Cmax has been recorded for Cc1cc(OCCCS(C)(=O)=O)cc(C)c1-c1cccc(COc2ccc(-c3cc(O)n[s+]3[O-])cc2)c1 (stereo not shown) ?
Outgoing: 264

---

- METHOD_NOTES: Pharmacokinetic study in rats
- Type: in vivo, male Sprague-Dawley rats
- RUN_CONDITIONS: male, Sprague-Dawley, rat, plasma, po, 3 mg/kg
TEST_READOUT: half-life (min)
Report the figure in min without appending any unit label.

Incoming: Quick check: half-life of Cc1cc(OCCCS(C)(=O)=O)cc(C)c1-c1cccc(COc2ccc(-c3cc(O)n[s+]3[O-])cc2)c1 (stereo not shown) [MR1704] ?
Outgoing: 128

---

- METHOD_NOTES: Pharmacokinetic study in rats
- Assay type: in vivo, male Sprague-Dawley rats
- RUN_CONDITIONS: male, Sprague-Dawley, rat, plasma, po, 3 mg/kg
TEST_READOUT: Tmax (h)
Numeric answer only, unit h assumed.

Incoming: State the recorded Tmax for this entry: Cc1cc(OCCCS(C)(=O)=O)cc(C)c1-c1cccc(COc2ccc(-c3cc(O)n[s+]3[O-])cc2)c1 (stereo not shown)
Outgoing: 4

---

- METHOD_NOTES: Pharmacokinetic study in rats
- Assay type: in vivo, male Sprague-Dawley rats
- RUN_CONDITIONS: male, Sprague-Dawley, rat, plasma, po, 10 mg/kg
TEST_READOUT: half-life (h)
Report only the number, with the unit h understood.

Incoming: Name the reported half-life value associated with the compound Cc1cc(OCCCS(C)(=O)=O)cc(C)c1-c1cccc(COc2ccc(-c3cc(O)n[s+]3[O-])cc2)c1 (stereo not shown)
Outgoing: 2.08

---

- METHOD_NOTES: Pharmacokinetic study in rats
- Format: in vivo, male Sprague-Dawley rats
- RUN_CONDITIONS: male, Sprague-Dawley, rat, plasma, po, 0.3 mg/kg
TEST_READOUT: bioavailability (%)
Hi! Could you send only the number? It should be in %, unit omitted.

Incoming: Report bioavailability for Cc1cc(OCCCS(C)(=O)=O)cc(C)c1-c1cccc(COc2ccc(-c3cc(O)n[s+]3[O-])cc2)c1 (stereo not shown) please.
Outgoing: 57

---

- METHOD_NOTES: Pharmacokinetic study in rats
- Type: in vivo, male Sprague-Dawley rats
- RUN_CONDITIONS: male, Sprague-Dawley, rat, plasma, po, 10 mg/kg
TEST_READOUT: Cmax (ng/mL)
Numeric only. Scale: ng/mL

Incoming: So what does the record say about Cmax for Cc1cc(OCCCS(C)(=O)=O)cc(C)c1-c1cccc(COc2ccc(-c3cc(O)n[s+]3[O-])cc2)c1 (stereo not shown) ?
Outgoing: 1130

---

- METHOD_NOTES: Pharmacokinetic study in rats
- Format: in vivo, male Sprague-Dawley rats
- RUN_CONDITIONS: male, Sprague-Dawley, rat, plasma, po, 0.3 mg/kg
TEST_READOUT: Tmax (min)
Express it in min; write the number only.

Incoming: Recorded Tmax of Cc1cc(OCCCS(C)(=O)=O)cc(C)c1-c1cccc(COc2ccc(-c3cc(O)n[s+]3[O-])cc2)c1 (stereo not shown) , please.
Outgoing: 49.8

---

- METHOD_NOTES: Pharmacokinetic study in rats
- Format: in vivo, male Sprague-Dawley rats
- RUN_CONDITIONS: male, Sprague-Dawley, rat, plasma, po, 10 mg/kg
TEST_READOUT: AUC(0-inf) (ng·h/mL)
Numeric answer only, unit ng·h/mL assumed.

Incoming: // lookup AUC(0-inf) for Cc1cc(OCCCS(C)(=O)=O)cc(C)c1-c1cccc(COc2ccc(-c3cc(O)n[s+]3[O-])cc2)c1 (stereo not shown) [MR1704]
Outgoing: 8430

---

- METHOD_NOTES: Pharmacokinetic study in rats
- Assay type: in vivo, male Sprague-Dawley rats
- RUN_CONDITIONS: male, Sprague-Dawley, rat, plasma, po, 10 mg/kg
TEST_READOUT: Tmax (h)
The response must be a number in h with no trailing unit.

Incoming: Consider the compound shown here: Cc1cc(OCCCS(C)(=O)=O)cc(C)c1-c1cccc(COc2ccc(-c3cc(O)n[s+]3[O-])cc2)c1 (stereo not shown) What is its recorded Tmax?
Outgoing: 5.33

---

- TESTED_SYSTEM: human GPR40/FFAR1 (Homo sapiens, UniProt O14842)
- Sequence (O14842 whole entry): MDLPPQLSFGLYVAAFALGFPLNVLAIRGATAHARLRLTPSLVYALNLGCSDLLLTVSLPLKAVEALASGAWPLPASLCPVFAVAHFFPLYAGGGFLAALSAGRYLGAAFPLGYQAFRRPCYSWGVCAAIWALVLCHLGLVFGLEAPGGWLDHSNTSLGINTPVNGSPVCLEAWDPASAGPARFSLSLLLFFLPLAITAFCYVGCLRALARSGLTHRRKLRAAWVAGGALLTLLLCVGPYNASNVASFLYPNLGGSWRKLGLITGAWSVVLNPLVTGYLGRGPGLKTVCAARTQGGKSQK
- METHOD_NOTES: Intracellular calcium assay
TEST_READOUT: pEC50
pEC50 is defined as minus the log10 of a concentration measured in mol/L.

Incoming: What does the record list as pEC50 for Cc1cc(OCCCS(C)(=O)=O)cc(C)c1-c1cccc(COc2ccc(-c3cc(O)n[s+]3[O-])cc2)c1 (stereo not shown) ?
Outgoing: 7.46

---

- METHOD_NOTES: Pharmacokinetic study in rats
- Format: in vivo, male Sprague-Dawley rats
- RUN_CONDITIONS: male, Sprague-Dawley, rat, plasma, po, 10 mg/kg
TEST_READOUT: bioavailability (%)
The reply should contain only the number, in %.

Incoming: Consider the molecule Cc1cc(OCCCS(C)(=O)=O)cc(C)c1-c1cccc(COc2ccc(-c3cc(O)n[s+]3[O-])cc2)c1 (stereo not shown) [MR1704] and give its measured bioavailability.
Outgoing: 28

---

- METHOD_NOTES: Pharmacokinetic study in rats
- Type: in vivo, male Sprague-Dawley rats
- RUN_CONDITIONS: male, Sprague-Dawley, rat, plasma, po, 3 mg/kg
TEST_READOUT: AUC(0-inf) (ng·h/mL)
The answer is to be given in ng·h/mL; state only the numeric part.

Incoming: Look up AUC(0-inf) for this compound: Cc1cc(OCCCS(C)(=O)=O)cc(C)c1-c1cccc(COc2ccc(-c3cc(O)n[s+]3[O-])cc2)c1 (stereo not shown)
Outgoing: 4710

---

This section lists EC50 readings for GPR40/FFAR1 (Mus musculus).
Your answer should be a plain number; it is taken to be in µM.

Cc1cc(OCCCS(C)(=O)=O)cc(C)c1-c1cccc(COc2ccc(-c3cc(O)n[s+]3[O-])cc2)c1 (centres unmarked) ... 0.21

Incoming: Param readout = EC50; param system = GPR40/FFAR1 (Mus musculus); param query = CCCCCCCCCCCCCCCC(=O)O [palmitic acid, reference compound] ; response: value
Sequence (Q76JU9 whole entry): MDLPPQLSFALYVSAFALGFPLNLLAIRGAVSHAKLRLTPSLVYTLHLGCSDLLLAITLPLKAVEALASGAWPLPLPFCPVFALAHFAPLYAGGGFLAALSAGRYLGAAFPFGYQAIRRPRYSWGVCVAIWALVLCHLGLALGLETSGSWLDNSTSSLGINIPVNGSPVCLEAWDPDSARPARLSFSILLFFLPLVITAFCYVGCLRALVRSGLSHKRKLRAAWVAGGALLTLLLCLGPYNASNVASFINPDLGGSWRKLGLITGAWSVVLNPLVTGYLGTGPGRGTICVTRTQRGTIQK
Outgoing: 29

---

- METHOD_NOTES: Pharmacokinetic study in rats
- Type: in vivo, male Sprague-Dawley rats
- RUN_CONDITIONS: male, Sprague-Dawley, rat, plasma, iv, 3 mg/kg
TEST_READOUT: clearance (mL/min/kg)
# output: bare number, implied unit mL/min/kg

Incoming: Fill in the blank: the reported clearance of Cc1cc(OCCCS(C)(=O)=O)cc(C)c1-c1cccc(COc2ccc(-c3cc(O)n[s+]3[O-])cc2)c1 (stereo not shown) is ____.
Outgoing: 5.62

---

- METHOD_NOTES: Pharmacokinetic study in rats
- Type: in vivo, male Sprague-Dawley rats
- RUN_CONDITIONS: male, Sprague-Dawley, rat, plasma, iv, 3 mg/kg
TEST_READOUT: AUC(0-inf) (ng·h/mL)
// units = ng·h/mL; emit number, no label

Incoming: I have this molecule here, Cc1cc(OCCCS(C)(=O)=O)cc(C)c1-c1cccc(COc2ccc(-c3cc(O)n[s+]3[O-])cc2)c1 (stereo not shown) [MR1704] , and I need its recorded AUC(0-inf).
Outgoing: 8960

---

- TESTED_SYSTEM: mouse GPR40/FFAR1 (Mus musculus)
- METHOD_NOTES: Intracellular calcium assay
TEST_READOUT: EC50 (nM)
Output spec: scalar in nM, unitless text.

Incoming: Given the compound Cc1cc(OCCCS(C)(=O)=O)cc(C)c1-c1cccc(COc2ccc(-c3cc(O)n[s+]3[O-])cc2)c1 (stereo not shown) , what is its reported EC50?
Outgoing: 25

---

- METHOD_NOTES: Pharmacokinetic study in rats
- Assay type: in vivo, male Sprague-Dawley rats
- RUN_CONDITIONS: male, Sprague-Dawley, rat, plasma, iv, 3 mg/kg
TEST_READOUT: half-life (h)
Quick reminder: number only, in h, skip the unit.

Incoming: Form field: reported half-life of Cc1cc(OCCCS(C)(=O)=O)cc(C)c1-c1cccc(COc2ccc(-c3cc(O)n[s+]3[O-])cc2)c1 (stereo not shown)
Outgoing: 1.92

---

- METHOD_NOTES: Pharmacokinetic study in rats
- Format: in vivo, male Sprague-Dawley rats
- RUN_CONDITIONS: male, Sprague-Dawley, rat, plasma, po, 0.3 mg/kg
TEST_READOUT: half-life (h)
Expressed in h, but write only the number.

Incoming: Find the recorded half-life belonging to Cc1cc(OCCCS(C)(=O)=O)cc(C)c1-c1cccc(COc2ccc(-c3cc(O)n[s+]3[O-])cc2)c1 (stereo not shown) [MR1704] and report it.
Outgoing: 2.48
